TARGET SYSTEM: bee venom phospholipase A2 (Apis mellifera)
Sequence (P00630 34-167 limits assumed): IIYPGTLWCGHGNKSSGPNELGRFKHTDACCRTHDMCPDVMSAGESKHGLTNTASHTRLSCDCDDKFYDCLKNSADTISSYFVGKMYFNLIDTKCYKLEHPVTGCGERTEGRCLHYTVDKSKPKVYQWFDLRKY
ASSAY NAME: biochemical
Type: biochemical
CONDITIONS: 1 h; final concentration 1 μM; read-out: % Inactivation of bee venom phospholipase A2
TEST READOUT: inhibition at 1 µM (%)
Number only, in %; omit the unit.

What the record says about Brc1ccc2c(-c3c[nH]c(-c4c[nH]c5cc(Br)ccc45)n3)c[nH]c2c1 [Nortopsentin A] : inhibition at 1 µM is 30

For CC(=O)Oc1ccc2c(C(=O)c3ncc(-c4c[nH]c5ccccc45)[nH]3)c[nH]c2c1 [Topsentin monoacetate] the molecule record lists inhibition at 1 µM as 42

The measured inhibition at 1 µM associated with CN1CC(c2c[nH]c3c(Br)c(Br)cc(O)c23)NCC1c1c[nH]c2cc(Br)ccc12 (centres unmarked) [Dragmacidin] reads 27

Lab note: Brc1ccc2c(-c3nc(-c4c[nH]c5ccccc45)c[nH]3)c[nH]c2c1 [Nortopsentin B, nortopsentin B] gave inhibition at 1 µM of 27

# inhibition at 1 µM of O=C(c1nc(-c2c[nH]c3cc(Br)ccc23)c[nH]1)c1c[nH]c2cc(O)ccc12 [Bromotopsentin] = 33

Per the record, Brc1ccc2c(-c3c[nH]c(-c4c[nH]c5ccccc45)n3)c[nH]c2c1 [Nortopsentin C, nortopsentin C] has inhibition at 1 µM of 26

Given item O=C(c1nc(-c2c[nH]c3ccccc23)c[nH]1)c1c[nH]c2cc(O)ccc12 [Topsentin] , the value recorded as its inhibition at 1 µM is 67

Looking up CC(=O)Oc1ccc2c(C(=O)c3ncc(-c4c[nH]c5ccccc45)n3C(C)=O)c[nH]c2c1 [Topsentin diacetate, topsentin diacetate] , I see its inhibition at 1 µM listed as 32
